# Test system: A549 lung carcinoma cells
# test: Cell proliferation assay, A549 (CellTiter-Glo, 7 days)
# Type: cell-based
# condition.label: Homo sapiens, A549, 168 h, A549, 7 days, CellTiter-Glo 2.0
measured.property: EC50

Known EC50 results, listed for orientation:
C[C@]1(CCc2cc(F)c3cc(Cl)c(N)nc3c2)C[C@@H](n2ccc3c(N)ncc(F)c32)[C@H](O)[C@@H]1O [Compound 34]	< 20 nM
Nc1nc2cc(CC[C@@]3(F)C[C@@H](n4ccc5c(N)ncnc54)[C@H](O)[C@@H]3O)cc(F)c2cc1Cl [Compound 36]	< 20 nM
CCCCCOC(=O)Nc1ccc2cc(CC[C@@]3(C)C[C@@H](n4ccc5c(N)ncnc54)[C@H](O)[C@@H]3O)ccc2n1 [Compound 20-A]	100 to 1000 nM
Nc1ccc2ccc(CC[C@@]34C[C@@H]3[C@@H](n3ccc5c(N)ncnc53)[C@H](O)[C@@H]4O)cc2n1 [Compound 13]	< 20 nM
C[C@]1(CCCCc2cccc(N)n2)C[C@@H](n2ccc3c(N)ncnc32)[C@H](O)[C@@H]1O [Compound 47]	20 to 100 nM

Give the reported EC50 for C[C@]1(CCc2ccc3ccc(N)nc3c2)C[C@@H](c2cnn3c(N)ncnc23)[C@H](O)[C@@H]1O [Compound 56] (system: A549 lung carcinoma cells). < 20 nM

Same read-out for Nc1nc2cc(CC[C@@]34C[C@@H]3[C@@H](n3ccc5c(N)ncnc53)[C@H](O)[C@@H]4O)ccc2cc1Cl [Compound 19] ? < 20 nM

====

# System: A549 lung carcinoma cells
# test: Cell proliferation assay, A549 (CellTiter-Glo, 7 days)
# Type: cell-based
# condition.label: A549, 7 days, CellTiter-Glo 2.0
measured.property: EC50

Known EC50 results, listed for orientation:
C[C@]1(CCc2ccc3ccc(N)nc3n2)C[C@@H](n2ccc3c(N)ncnc32)[C@H](O)[C@@H]1O [Compound 24]	20 to 100 nM
Cc1cnc2cc(OC[C@@]34C[C@@H]3[C@@H](n3ccc5c(N)ncnc53)[C@H](O)[C@@H]4O)ccn12 [Compound 16]	≥ 1000 nM

Proceed to the following item.
Fill blank: measured EC50 of the molecule Nc1ncnc2c1ccn2[C@H]1[C@H](O)[C@H](O)[C@]2(C(O)c3ccc(Cl)c(Cl)c3)C[C@H]12 (single isomer, unassigned) [Compound 7] is ____. 100 to 1000 nM

====

# measured.on: PRMT5/MEP50 (Homo sapiens (Human), UniProt O14744)
# Sequence (O14744 whole entry): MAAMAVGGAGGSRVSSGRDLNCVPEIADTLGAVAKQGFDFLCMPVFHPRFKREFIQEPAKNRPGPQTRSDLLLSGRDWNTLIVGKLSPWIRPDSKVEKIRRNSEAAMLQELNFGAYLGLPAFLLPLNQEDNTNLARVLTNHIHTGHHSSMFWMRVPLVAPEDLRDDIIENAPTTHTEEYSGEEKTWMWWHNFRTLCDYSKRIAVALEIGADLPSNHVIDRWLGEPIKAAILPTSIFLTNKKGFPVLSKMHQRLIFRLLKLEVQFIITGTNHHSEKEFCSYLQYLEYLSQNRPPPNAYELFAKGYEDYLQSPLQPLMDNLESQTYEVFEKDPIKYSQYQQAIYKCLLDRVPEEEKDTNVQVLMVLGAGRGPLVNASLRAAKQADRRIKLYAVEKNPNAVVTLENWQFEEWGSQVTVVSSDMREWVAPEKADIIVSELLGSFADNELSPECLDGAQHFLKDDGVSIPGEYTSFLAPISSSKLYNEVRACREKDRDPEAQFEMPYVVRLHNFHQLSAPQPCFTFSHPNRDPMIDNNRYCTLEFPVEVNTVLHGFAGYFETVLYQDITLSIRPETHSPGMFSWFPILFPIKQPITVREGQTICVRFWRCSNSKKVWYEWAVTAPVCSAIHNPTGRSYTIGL
# Sequence (Q9BQA1 whole entry partner): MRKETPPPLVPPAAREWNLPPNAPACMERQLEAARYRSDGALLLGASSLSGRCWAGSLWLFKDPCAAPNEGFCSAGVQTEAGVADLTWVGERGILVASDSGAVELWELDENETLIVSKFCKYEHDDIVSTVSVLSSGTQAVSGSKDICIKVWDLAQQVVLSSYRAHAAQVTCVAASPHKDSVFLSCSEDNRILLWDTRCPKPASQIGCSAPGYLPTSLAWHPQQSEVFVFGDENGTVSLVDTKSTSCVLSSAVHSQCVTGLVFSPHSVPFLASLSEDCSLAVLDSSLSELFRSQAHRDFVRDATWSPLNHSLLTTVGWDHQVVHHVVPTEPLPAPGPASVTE
# test: PRMT5/MEP50 enzyme inhibition assay, Assay 2 (384-well, MALDI mass spectrometry, histone H4 1-21 peptide)
# Assay type: biochemical
# condition.label: 1 μM SAM, 0.1 μM histone H4 1-21 peptide, 18-hour incubation at rt
measured.property: IC50

C=C[C@]1(CCc2cc(F)c3cc(Cl)c(N)nc3c2)C[C@@H](n2ccc3c(N)ncnc32)[C@H](O)[C@@H]1O	< 1 nM

Fill blank: measured IC50 of the compound "C=C1[C@@H](n2ccc3c(N)ncnc32)[C@H](O)[C@H](O)[C@H]1CCc1ccc2cc(Br)c(Cl)nc2c1" is ____. > 100 nM

Same read-out for "C[C@]1(CCc2ccc3nc(N)ccc3c2)C[C@@H](n2ccc3c(N)ncc(F)c32)[C@H](O)[C@@H]1O" ? 1 to 100 nM

Same read-out for "C[C@]1(CCc2cc(F)c3cc(Cl)c(N)nc3c2)C[C@@H](n2ccc3c(N)nc(Cl)nc32)[C@H](O)[C@@H]1O" ? < 1 nM

Same read-out for "C[C@]1(CCc2ccc3ccc(N)nc3c2)C[C@@H](n2ccc3c(N)ncnc32)[C@H](O)[C@@H]1O" ? < 1 nM

Same read-out for "Nc1nc2cc(CC[C@@]34C[C@@H]3[C@@H](n3ccc5c(N)ncnc53)[C@H](O)[C@@H]4O)ccc2cc1Cl" ? < 1 nM

Same read-out for "Nc1nc2cc(CC[C@@]3(CO)C[C@@H](n4ccc5c(N)ncnc54)[C@H](O)[C@@H]3O)cc(F)c2cc1Cl" ? < 1 nM

Same read-out for "C[C@@H]1[C@H](CCc2ccc3ccc(N)nc3c2)[C@@H](O)[C@@H](O)[C@@H]1n1ccc2c(N)ncnc21" ? 1 to 100 nM

Same read-out for "C[C@]1(CCc2ccc3cc(Cl)c(N)nc3c2)C[C@@H](n2ccc3c(N)ncnc32)[C@H](O)[C@@H]1O" ? < 1 nM

Same read-out for "C#C[C@]1(CCc2cc(F)c3cc(Cl)c(N)nc3c2)C[C@@H](n2ccc3c(N)ncnc32)[C@H](O)[C@@H]1O" ? < 1 nM

Same read-out for "Nc1nc2cc(CC[C@@]34C[C@@H]3[C@@H](n3ccc5c(N)ncnc53)[C@H](O)[C@@H]4O)ccc2cc1Br" ? < 1 nM

Same read-out for "C[C@]1(CCc2cc(F)c3cc(Cl)c(N)nc3c2)C[C@@H](n2ccc3c(N)nccc32)[C@H](O)[C@@H]1O" ? < 1 nM

Same read-out for "COC[C@]1(CCc2ccc3cc(Br)c(N)nc3c2)C[C@@H](n2ccc3c(N)ncnc32)[C@H](O)[C@@H]1O" ? < 1 nM

Same read-out for "C[C@]1(CCc2ccc3cc(C#N)c(N)nc3c2)C[C@@H](n2ccc3c(N)ncnc32)[C@H](O)[C@@H]1O" ? < 1 nM

Same read-out for "Cn1c(N)nc2cc(CC[C@@]3(C)C[C@@H](n4ccc5c(N)ncnc54)[C@H](O)[C@@H]3O)ccc2c1=O" ? < 1 nM

Same read-out for "Nc1nc2cc(OC[C@@]3(F)C[C@@H](n4ccc5c(N)ncnc54)[C@H](O)[C@@H]3O)ccc2cc1Br" ? < 1 nM

Same read-out for "C[C@]1(CCc2ccc3cc(C(F)F)c(N)nc3c2)C[C@@H](n2ccc3c(N)ncnc32)[C@H](O)[C@@H]1O" ? < 1 nM

Same read-out for Nc1nc2cc(OC[C@@H]3[C@@H](O)[C@@H](O)C4(n5ccc6c(N)ncnc65)C[C@@H]34)ccc2cc1Br (mixture of isomers) ? > 100 nM

Same read-out for Nc1ncnc2c1ccn2[C@H]1[C@H](O)[C@H](O)[C@]2(C(O)c3ccc(Cl)c(Cl)c3)C[C@H]12 (single isomer, unassigned) [Compound 8] ? > 100 nM

Same read-out for "N#C[C@]1(CCc2cc(F)c3cc(Cl)c(N)nc3c2)C[C@@H](n2ccc3c(N)ncnc32)[C@H](O)[C@@H]1O" ? < 1 nM

Same read-out for "CC(C)C(=O)O[C@H]1[C@H](n2ccc3c(N)ncnc32)C[C@](C)(CCc2ccc3ccc(N)nc3c2)[C@H]1OC(=O)C(C)C" ? > 100 nM

====

# System: HepG2 hepatoma cells
# test: Cell proliferation assay, HepG2 (CellTiter-Glo, 7 days)
# Format: cell-based
# condition.label: HepG2, 7 days, CellTiter-Glo 2.0
pEC50: −log10 of the molar value.
// reported pEC50 per item

C=C1[C@@H](n2ccc3c(N)ncnc32)[C@H](O)[C@H](O)[C@H]1CCc1ccc2cc(Br)c(Cl)nc2c1 [Compound 3]	6.00 to 7.00

Give the reported pEC50 for Cc1cnc2cc(OC[C@@]34C[C@@H]3[C@@H](n3ccc5c(N)ncnc53)[C@H](O)[C@@H]4O)ccn12 [Compound 16] (system: HepG2 hepatoma cells). ≤ 6.00

Same read-out for Cn1c(N)nc2cc(CC[C@@]3(C)C[C@@H](n4ccc5c(N)ncnc54)[C@H](O)[C@@H]3O)ccc2c1=O [Compound 29] ? > 7.70

Same read-out for C[C@H]1[C@H](CCc2ccc3ccc(N)nc3c2)[C@@H](O)[C@@H](O)[C@@H]1n1ccc2c(N)ncnc21 [Compound 5] ? 6.00 to 7.00

====

# measured.on: PRMT5/MEP50 (Homo sapiens (Human))
# test: PRMT5/MEP50 enzyme inhibition assay, Assay 1 (radioisotope filter binding, 3H-SAM, histone H2A)
# Format: biochemical
# condition.label: 1 μM 3H-SAM, 5 μM histone H2A, 60 min at 30° C.
pIC50: −log10 of the molar value.
measured.property: pIC50

Fill blank: measured pIC50 of the compound "C=C1[C@@H](n2ccc3c(N)ncnc32)[C@H](O)[C@H](O)[C@H]1CCc1ccc2cc(Br)c(Cl)nc2c1" is ____. < 7.00

Same read-out for "Nc1nc2cc(CC[C@@]34C[C@@H]3[C@@H](n3ccc5c(N)ncnc53)[C@H](O)[C@@H]4O)ccc2cc1Br" ? > 9.00

Same read-out for Nc1ncnc2c1ccn2[C@H]1[C@H](O)[C@H](O)[C@]2(C(O)c3ccc(Cl)c(Cl)c3)C[C@H]12 (single isomer, unassigned) [Compound 7] ? > 9.00

Same read-out for "Nc1nc2cc(OC[C@@]3(F)C[C@@H](n4ccc5c(N)ncnc54)[C@H](O)[C@@H]3O)ccc2cc1Br" ? > 9.00

Same read-out for Nc1ncnc2c1ccn2[C@H]1[C@H](O)[C@H](O)[C@]2(C(O)c3ccc(Cl)c(Cl)c3)C[C@H]12 (single isomer, unassigned) [Compound 8] ? 7.00 to 9.00

Same read-out for "Cc1cc2ccc(CC[C@@]3(C)C[C@@H](n4ccc5c(N)ncnc54)[C@H](O)[C@@H]3O)cc2nc1N" ? > 9.00
